- testedSystem: ProfilerPro Kinase Selectivity Assay Kit kinases (Homo sapiens, UniProt P49137)
- Format: biochemical
- assaySetup: MAPKAPK2; 1 μM compound concentration
Provide the reported POC (Percent of control) MAPKAPK2 of each item.
One number for each entry, in POC.

# compound, POC (Percent of control) MAPKAPK2 / POC
rows = [
    ("c1cnc(Nc2cccc3[nH]ccc23)c(-c2ncnc3[nH]cnc23)c1 [Example 19]", 90),
    ("Cc1nc(N)nc(-c2cc(CN3CCN(S(C)(=O)=O)CC3)cnc2Nc2cccc(O)c2)n1 [Example 30]", 103),
    ("CCc1cnc(Nc2ccc(OC)nc2)c(-c2nc(C)nc3[nH]cnc23)c1 [Example 74]", 100),
    ("COc1ccc(Nc2ncc(Cc3ccc(S(C)(=O)=O)cc3)cc2-c2nc(C)nc3[nH]cnc23)cn1 [Example 103]", 100),
    ("Cc1cnc(Nc2cccc3[nH]ncc23)c(-c2nc(C)nc(N)n2)c1 [Example 47]", 101),
]

For the 7 compounds below, give their POC (Percent of control) MAPKAPK2 values.
1. Cc1nc(N)nc(-c2cccnc2Nc2cccc3[nH]ccc23)n1 [Example 22]
2. Cc1nc(-c2cccnc2Nc2cccc3[nH]ncc23)c2nc[nH]c2n1 [Example 57]
3. Cc1nc(N)nc(-c2cccnc2Nc2cccc(O)c2)n1 [Example 23]
4. COc1ccc(Nc2ncccc2-c2ncnc3[nH]cnc23)cn1 [Example 20]
5. COc1ccc(Nc2ncccc2-c2nc(C)nc3[nH]cnc23)cn1 [Example 58]
6. c1cnc(Nc2cccc3[nH]ncc23)c(-c2ncnc3[nH]cnc23)c1 [Example 18]
7. Cc1cnc(Nc2cccc3[nH]ccc23)c(-c2nc(C)nc(N)n2)c1 [Example 46]

stdout:
[98, 99, 99, 100, 96, 93, 98]

For the 2 compounds below, give their POC (Percent of control) MAPKAPK2 values.
1. Cc1nc(N)cc(-c2cccnc2Nc2cccc3[nH]ncc23)n1 [Example 27]
2. COc1ccc(Nc2ncc(CN3CCN(C(C)=O)CC3)cc2-c2nc(C)nc3[nH]cnc23)cn1 [Example 89]

stdout:
[101, 100]
